assay: Thermostability (Tm, Tonset, Tagg) by Nanotemper DSF; format: physicochemical; design: key: temperatures in °C; settings: anti-Der p2 VHH; second melting point observed; in °C (unit assumed)
Would you mind telling me the reported Tm2 of each entry?
One number for each entry.

Working through the 4 molecules below one at a time, give Tm2 for each.
1. SDAB22111-1-H12 (VHH, anti-Der p2 alpaca VHH; prokaryotic expression) VHH: QVQLVESGGGLVQPGGSLRLSCAASRSIDRFPAMGWYRQAPGKKRELVAAISSANTRTKYADSVKGRFTISRDNAENTMYLQMNSLKPEDTAVYYCNVFPRPVQGYWGQGTQVTVSS
2. SDAB22111-1-C1 (VHH, anti-Der p2 alpaca VHH; prokaryotic expression) VHH: QVQLVESGGGLVQPGGSLRLSCAASASFVGAYAMYWFRQATGKQRELVAFITSGNSTNYADSVKGRFTISRDYTKNTVYLQMNKLKPEDTAVYSCNLVTSRGDYWGQGTQVTVSS
3. SDAB22111-1-D3 (VHH, anti-Der p2 alpaca VHH; prokaryotic expression) VHH: QLQLVESGGGLVQPGGSLRLSCVVSGRTLSGHNMGWFRQAPGKEREFVARINSNGGTTRYADAVKGRFTISRDNAKNTAYLQMNSLKSEDTAVYYCRLVGPAGYWGQGTQVTVSS
4. SDAB22111-1-D6 (VHH, anti-Der p2 alpaca VHH; prokaryotic expression) VHH: DVQLVESGGGLVQPGGSLRLSCVASGLTFSYYDMKWHRQAPGKERELVAAIIEGGRTMYADSVKGRFTISRDSPKKSVYLQMNNLKSEDTAVYYCNAVRARFRGLGNDDAWGQGTQVTVSS

Response:
[59.13, 66.51, 69.76, 62.55]
